# Test system: IGROV1 ovarian
# protocol: NCI tumour cell line growth inhibition, 48 h; in the data active = GI50 below about 0.43 µM; inactive = the rest
Classes used: active, inactive

{"molecule": "CSC(=S)NCc1cn(C)c2ccccc12", "class": "inactive"}
{"molecule": "CC(C)=CC(=O)OC1C2C(C)=CC(=O)C(O)C2(C)C2C3(O)OCC24C(CC(=O)OC14)C(C)C3O (centres undefined)", "class": "active"}
{"molecule": "CSCc1ncc(-c2ccc(C(F)(F)F)cc2)c(NC2CCCCCC2)n1", "class": "inactive"}
{"molecule": "COc1ccc(-c2cn3ccnc3c(-c3ccc(Cl)cc3)n2)cc1", "class": "inactive"}
{"molecule": "COc1ccc(C(=O)Cn2c(C(=O)c3ccc(Cl)cc3)nc(-c3ccccc3)c2-c2ccccc2)cc1", "class": "inactive"}
{"molecule": "COc1ccc2c(c1)[n+](=O)c(/C=C/C(=O)c1cc(OC)c(OC)c(OC)c1)c(C)n2[O-]", "class": "inactive"}
{"molecule": "CCCCC[C@H]1C/C=C2/C(=O)C=C[C@@H]2C/C=C\\CCCC(=O)O1", "class": "active"}
{"molecule": "CCOC(=O)/C=C/c1ccc([N+](=O)[O-])o1", "class": "inactive"}
{"molecule": "COc1cc(C2CC(c3ccc(Cl)cc3)=NN2C(C)=O)ccc1Oc1ccnc2cc(Cl)ccc12 (centres undefined)", "class": "inactive"}
